# Lookup of reported %Inh keyed by entry
test system: LKB1; construct: gene STK11; conditions: concentration: 1 μM, replicates: in singlicate; n = 1;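 note: KINOMEscan kinase panel screen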
Give your result in % as a bare value.

Reference set, count: 3
> print(dat)
                        structure.as.smiles  property  unit.descriptor  result.number
1  COc1cc2c(cc1OCCN1CCNCC1)ncc1c3ccc(C#N)cc3[nH]c21      %Inh                %             15
2      c1ccc(-c2n[nH]cc2Nc2ccnc3ccccc23)nc1      %Inh                %             94
3  C[C@@H](Oc1cc(-n2cnc3cc(-c4ccnc(NCCS(C)(=O)=O)c4)ccc32)sc1C(N)=O)c1ccccc1Cl      %Inh                %              0

Prompt: Recall and state the measured %Inh for COc1cccc(-c2ccc3c(NC(=O)C4CC4)n[nH]c3n2)c1 .
Response: 0

Prompt: Determine from records and report %Inh for CN(C)S(=O)(=O)c1cc(-c2ccc3nccc(-c4cccc(S(N)(=O)=O)c4)c3c2)cnc1N
Response: 0

Prompt: Return %Inh (reported value) for this compound: CN1CCN(CCCNc2nccc(-c3c(-c4ccc(F)cc4)nn4cc(C(F)(F)F)ccc34)n2)CC1
Response: 5

Prompt: Give the reported %Inh for this compound. O=C(Nc1cccc(Oc2ccc3nc(NC(=O)C4CC4)cn3n2)c1)c1ccccc1C(F)(F)F
Response: 0

Prompt: Look up %Inh of CCn1c(-c2nonc2N)nc2c(C#CC(C)(C)O)nc(OC[C@H](N)c3ccccc3)cc21 and report it.
Response: 31

* * *

Examples of compounds with documented %Inh follow.
test system: MST4; conditions: concentration: 1 μM, replicates: in singlicate; n = 1

These recorded examples may help you get a feel for the data.
> print(dat)
                                   compound  study.system  property  result
1  CN(C)S(=O)(=O)c1cc(-c2ccc3nccc(-c4cccc(S(N)(=O)=O)c4)c3c2)cnc1N          MST4      %Inh      6%
2  COc1cccc(NC(=O)NC2CCN(c3ccnc(Nc4cc(OC)c(OC)c(OC)c4)n3)C2)c1 (centres unmarked)          MST4      %Inh      0%
3  COc1cccc(C2=C(Nc3ccc(Cl)c(C(=O)O)c3)C(=O)NC2=O)c1          MST4      %Inh   96.3%
4  COc1ccc(Nc2nccc(NCCNC(=O)c3cc4ccccc4s3)n2)cc1          MST4      %Inh      0%

Prompt: Kindly indicate its recorded %Inh. Item: Cn1cc(-c2ccc3c(c2)CCN3C(=O)Cc2cccc(F)c2)c2c(N)ncnc21
Response: 8%

Prompt: For the compound C[C@@H](Oc1cc(-n2cnc3cc(-c4ccnc(NCCS(C)(=O)=O)c4)ccc32)sc1C(N)=O)c1ccccc1Cl , give its reported %Inh.
Response: 4%

Prompt: Please report the measured %Inh for O=C(Nc1n[nH]c2cc(-c3ccoc3)ccc12)C1CC1
Response: 0%

Prompt: Identify %Inh associated with the compound Cc1ccc(C(=O)N2CC[C@@H](O)C2)cc1-n1c(C)cc(OCc2ccc(F)cc2F)c(Br)c1=O
Response: 0%

The origin of these recorded values is paper PMC5540273.
